Biological target: Human CB1 receptor (Homo sapiens)
Sequence (P21554 whole entry): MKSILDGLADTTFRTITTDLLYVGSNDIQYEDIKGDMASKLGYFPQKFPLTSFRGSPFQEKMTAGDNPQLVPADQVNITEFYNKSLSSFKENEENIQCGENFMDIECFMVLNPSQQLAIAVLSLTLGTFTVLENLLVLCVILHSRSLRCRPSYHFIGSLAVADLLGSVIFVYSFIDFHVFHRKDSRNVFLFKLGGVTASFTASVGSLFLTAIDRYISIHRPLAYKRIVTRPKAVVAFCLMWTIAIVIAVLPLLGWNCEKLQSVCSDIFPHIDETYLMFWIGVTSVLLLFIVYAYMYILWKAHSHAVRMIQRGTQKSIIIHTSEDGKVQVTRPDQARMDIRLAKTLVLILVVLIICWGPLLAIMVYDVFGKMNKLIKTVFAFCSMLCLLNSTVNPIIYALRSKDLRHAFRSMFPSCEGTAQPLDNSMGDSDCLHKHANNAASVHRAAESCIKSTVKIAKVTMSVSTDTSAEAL
Experiment: hCB1 GTPγS binding
Details: human CB1 membranes, GTPg35S binding

| Molecule | Target Entity | EC50 / nM |
| --- | --- | --- |
| CC(C)(C)c1nc2cc(S(=O)(=O)N3CCC[C@H](C(=O)NC4CC4)C3)ccc2n1CC1CCC(F)(F)CC1 | Human CB1 receptor (Homo sapiens) | 1.71 |
| CC(C)(C)c1nc2cc(S(=O)(=O)N3CCOC(C(=O)NC4CC4)C3)ccc2n1CC1CCC(F)(F)CC1 (centres unmarked) | Human CB1 receptor (Homo sapiens) | 10.4 |
| CC(C)NC(=O)c1cnn(S(=O)(=O)c2ccc3c(c2)nc(C(C)(C)C)n3CC2CCC(F)(F)CC2)c1 | Human CB1 receptor (Homo sapiens) | 3.41 |
| CC(F)(F)c1nc2cc(S(=O)(=O)n3ccc(C(=O)NC4CC4)c3)ccc2n1CC1CCOCC1 | Human CB1 receptor (Homo sapiens) | 17.8 |
| CCCNC(=O)[C@H]1CCCN(S(=O)(=O)c2ccc3c(c2)nc(C(C)(C)C)n3CC2CCC(F)(F)CC2)C1 | Human CB1 receptor (Homo sapiens) | 1.69 |
| CC(C)(C)c1nc2cc(S(=O)(=O)n3ccc(C(=O)NC4CC4)c3)ccc2n1CC1CCOCC1 | Human CB1 receptor (Homo sapiens) | 10.5 |
| CCNC(=O)c1cnn(S(=O)(=O)c2ccc3c(c2)nc(C(C)(C)C)n3CC2CCOCC2)c1 | Human CB1 receptor (Homo sapiens) | 57.2 |
| CCNC(=O)c1ccn(S(=O)(=O)c2ccc3c(c2)nc(C(C)(C)C)n3CC2CCOCC2)c1 | Human CB1 receptor (Homo sapiens) | 84.2 |

====

Experiment: Solubility
Measured Endpoint: solubility (µM)

| Molecule | Measured Endpoint | Observed Value |
| --- | --- | --- |
| CC(C)(C)c1nc2cc(S(=O)(=O)n3cc(C(=O)NC4CC4)cn3)ccc2n1CC1CCC(F)(F)CC1 | solubility | 6.16 |
| CNC(=O)C1CCN(S(=O)(=O)c2ccc3c(c2)nc(C(C)(C)C)n3CC2CCOCC2)C1 (centres unmarked) | solubility | 2600 |
| CCCNC(=O)[C@H]1CCCN(S(=O)(=O)c2ccc3c(c2)nc(C(C)(C)C)n3CC2CCC(F)(F)CC2)C1 | solubility | 16.8 |
| CC(C)(C)c1nc2cc(S(=O)(=O)n3ccc(N)n3)ccc2n1CC1CCOCC1 | solubility | 43 |
| CC(C)NC(=O)c1cnn(S(=O)(=O)c2ccc3c(c2)nc(C(C)(C)C)n3CC2CCC(F)(F)CC2)c1 | solubility | 0.26 |
| CC(F)(F)c1nc2cc(S(=O)(=O)n3ccc(C(=O)NC4CC4)c3)ccc2n1CC1CCOCC1 | solubility | 6.2 |
| CC(C)(C)c1nc2cc(S(=O)(=O)n3ccc(C(=O)NC4CC4)c3)ccc2n1CC1CCOCC1 | solubility | 5.64 |
| CCNC(=O)c1ccn(S(=O)(=O)c2ccc3c(c2)nc(C(C)(C)C)n3CC2CCOCC2)c1 | solubility | 28 |
| CCNC(=O)[C@@H]1CN(S(=O)(=O)c2ccc3c(c2)nc(C(C)(C)C)n3CC2CCC(F)(F)CC2)CCO1 | solubility | 43.4 |
| CC(C)(C)c1nc2cc(S(=O)(=O)N3CCCC(c4ccccc4)C3)ccc2n1CC1CCOCC1 (centres unmarked) | solubility | 0.79 |
| CCNC(=O)c1cnn(S(=O)(=O)c2ccc3c(c2)nc(C(C)(C)C)n3CC2CCOCC2)c1 | solubility | 337 |
| CCNC(=O)c1ccn(S(=O)(=O)c2ccc3c(c2)nc(C(C)(F)F)n3CC2CCOCC2)c1 | solubility | 7.45 |
| CC(C)(C)c1nc2cc(S(=O)(=O)N3CCC[C@H](C(=O)NC4CC4)C3)ccc2n1CC1CCC(F)(F)CC1 | solubility | 29.4 |
| CNC(=O)c1cnn(S(=O)(=O)c2ccc3c(c2)nc(C(C)(C)C)n3CC2CCC(F)(F)CC2)c1 | solubility | 2.52 |
| CC(C)(C)c1nc2cc(S(=O)(=O)N3CCOCC3)ccc2n1CC1CCOCC1 | solubility | 128 |
| CC(C)(C)c1nc2cc(S(=O)(=O)N3CCOC(C(=O)NC4CC4)C3)ccc2n1CC1CCC(F)(F)CC1 (centres unmarked) | solubility | 42.5 |
| CC(C)(C)c1nc2cc(S(=O)(=O)N3CCC(c4ccccc4)C3)ccc2n1CC1CCOCC1 (centres unmarked) | solubility | 7.29 |

====

Molecular target: UniProt P21554
Labelling: Ki reported below 10 nM becomes Criterion met; at or above becomes Criterion not met.

| Molecule | Target Entity | Answer Label |
| --- | --- | --- |
| CC(C)(C)c1nc2cc(S(=O)(=O)n3cc(C(=O)NC4CC4)cn3)ccc2n1CC1CCC(F)(F)CC1 | UniProt P21554 | Criterion met |
| CCNC(=O)c1ccn(S(=O)(=O)c2ccc3c(c2)nc(C(C)(C)C)n3CC2CCOCC2)c1 | UniProt P21554 | Criterion not met |
| CC(C)(C)c1nc2cc(S(=O)(=O)N3CCC(c4ccccc4)C3)ccc2n1CC1CCOCC1 (centres unmarked) | UniProt P21554 | Criterion not met |
| CC(C)(C)c1nc2cc(S(=O)(=O)n3ccc(C(=O)NC4CC4)c3)ccc2n1CC1CCOCC1 | UniProt P21554 | Criterion met |
| CNC(=O)C1CCN(S(=O)(=O)c2ccc3c(c2)nc(C(C)(C)C)n3CC2CCOCC2)C1 (centres unmarked) | UniProt P21554 | Criterion not met |
| CCNC(=O)c1cnn(S(=O)(=O)c2ccc3c(c2)nc(C(C)(C)C)n3CC2CCOCC2)c1 | UniProt P21554 | Criterion not met |
| CC(C)(C)c1nc2cc(S(=O)(=O)N3CCC[C@H](C(=O)NC4CC4)C3)ccc2n1CC1CCC(F)(F)CC1 | UniProt P21554 | Criterion met |
| CCNC(=O)c1ccn(S(=O)(=O)c2ccc3c(c2)nc(C(C)(F)F)n3CC2CCOCC2)c1 | UniProt P21554 | Criterion not met |
| CNC(=O)c1cnn(S(=O)(=O)c2ccc3c(c2)nc(C(C)(C)C)n3CC2CCC(F)(F)CC2)c1 | UniProt P21554 | Criterion met |
| CC(C)(C)c1nc2cc(S(=O)(=O)n3ccc(N)n3)ccc2n1CC1CCOCC1 | UniProt P21554 | Criterion not met |
| CC(F)(F)c1nc2cc(S(=O)(=O)n3ccc(C(=O)NC4CC4)c3)ccc2n1CC1CCOCC1 | UniProt P21554 | Criterion not met |
| CC(C)(C)c1nc2cc(S(=O)(=O)N3CCCC(c4ccccc4)C3)ccc2n1CC1CCOCC1 (centres unmarked) | UniProt P21554 | Criterion not met |
| CCNC(=O)[C@@H]1CN(S(=O)(=O)c2ccc3c(c2)nc(C(C)(C)C)n3CC2CCC(F)(F)CC2)CCO1 | UniProt P21554 | Criterion not met |
| CCCNC(=O)[C@H]1CCCN(S(=O)(=O)c2ccc3c(c2)nc(C(C)(C)C)n3CC2CCC(F)(F)CC2)C1 | UniProt P21554 | Criterion met |
| CC(C)(C)c1nc2cc(S(=O)(=O)N3CCOCC3)ccc2n1CC1CCOCC1 | UniProt P21554 | Criterion not met |
| CC(C)(C)c1nc2cc(S(=O)(=O)N3CCOC(C(=O)NC4CC4)C3)ccc2n1CC1CCC(F)(F)CC1 (centres unmarked) | UniProt P21554 | Criterion not met |
| CC(C)NC(=O)c1cnn(S(=O)(=O)c2ccc3c(c2)nc(C(C)(C)C)n3CC2CCC(F)(F)CC2)c1 | UniProt P21554 | Criterion met |

====

Item-by-item account of EC50
Target: Human CB1 receptor (Homo sapiens)
Test: hCB1 GTPγS binding
Details: human CB1 membranes, GTPg35S binding

| Structure | Target Entity | Unit Info | EC50 |
| --- | --- | --- | --- |
| CC(C)(C)c1nc2cc(S(=O)(=O)n3cc(C(=O)NC4CC4)cn3)ccc2n1CC1CCC(F)(F)CC1 | Human CB1 receptor (Homo sapiens) | nM | 0.58 |
| CNC(=O)c1cnn(S(=O)(=O)c2ccc3c(c2)nc(C(C)(C)C)n3CC2CCC(F)(F)CC2)c1 | Human CB1 receptor (Homo sapiens) | nM | 1.21 |
| CCNC(=O)[C@@H]1CN(S(=O)(=O)c2ccc3c(c2)nc(C(C)(C)C)n3CC2CCC(F)(F)CC2)CCO1 | Human CB1 receptor (Homo sapiens) | nM | 43.8 |
